Tested on: MALME-3M melanoma
experiment: NCI tumour cell line growth inhibition, 48 h
Listed here are molecules together with their documented TGI.
assay.readout: TGI

| molecule | assay.readout | measured |
| --- | --- | --- |
| C[C@]12CC[C@H](O)CC1=CC[C@@H]1[C@@H]2CC[C@]2(C)C(=O)/C(=C/c3cccc(OCCCn4ccnc4)c3)C[C@@H]12 | TGI | 59.1 µM |
| CCOC(=O)c1cc2cc(Cc3ccc4[nH]c(C(=O)OCC)cc4c3)ccc2[nH]1 | TGI | > 100 µM |
| Nc1c(Br)cc(-c2cc(Br)c(N)c(Br)c2)cc1Br | TGI | > 100 µM |
| CCOc1ccc(NC(=O)Nc2cc(C(C)C)ccc2C)cc1 | TGI | 18.2 µM |
| COc1ccc(-n2c(CCCC(=O)O)nc3c2C(=O)c2ccccc2C3=O)cc1 | TGI | 59.7 µM |
| O=[N+]([O-])c1ccccc1S(=O)c1ccccc1 (configuration not stated) | TGI | > 100 µM |
| OCC(O)COc1ccc(Br)cc1 (configuration not stated) | TGI | > 100 µM |
| CCC(=O)Sc1ccccc1C(=O)Nc1ccc(Cl)cc1 | TGI | 51.2 µM |
| [Cu+2].[Cu+2].[O-]c1ccccc1C=Nc1ccccc1[O-].[O-]c1ccccc1C=Nc1ccccc1[O-] | TGI | 27.3 µM |
| N#Cc1c(-c2ccco2)c2c(n(C3OC(CO)C(O)C(O)C3O)c1=S)CCCC2 (configuration not stated) | TGI | > 100 µM |
| CN(C)CCC1(C2=CCCC2)CC/C(=C\c2ccc3c(c2)OCO3)C1=O (configuration not stated) | TGI | 30.1 µM |
| O=C(C=P(c1ccccc1)(c1ccccc1)c1ccccc1)C12CC3CC(CC(C3)C1)C2 | TGI | 38 µM |

The values you see were collected from PubChem BioAssay (NCI).
